Tested on: PPARg:RXRa 30nM:10nM, anti-RXR (NR concentration 30 nM, RXRa partner concentration 10 nM)
procedure-details: PBM binding z-score (relative to random genomic background probes); higher = stronger binding; sequences stand for … in GC…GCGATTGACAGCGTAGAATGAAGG
# binarize PBM binding z-score: threshold 0.9 inclusive, high side fulfilled, low side not fulfilled

| sequence | subject-of-test | category |
| --- | --- | --- |
| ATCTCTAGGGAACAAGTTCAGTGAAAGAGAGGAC | PPARg:RXRa 30nM:10nM, anti-RXR (NR concentration 30 nM, RXRa partner concentration 10 nM) | not fulfilled |
| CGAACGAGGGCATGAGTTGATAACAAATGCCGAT | PPARg:RXRa 30nM:10nM, anti-RXR (NR concentration 30 nM, RXRa partner concentration 10 nM) | not fulfilled |
| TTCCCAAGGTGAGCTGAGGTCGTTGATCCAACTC | PPARg:RXRa 30nM:10nM, anti-RXR (NR concentration 30 nM, RXRa partner concentration 10 nM) | not fulfilled |
| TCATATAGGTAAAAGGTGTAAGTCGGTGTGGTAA | PPARg:RXRa 30nM:10nM, anti-RXR (NR concentration 30 nM, RXRa partner concentration 10 nM) | fulfilled |
| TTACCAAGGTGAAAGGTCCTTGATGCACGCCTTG | PPARg:RXRa 30nM:10nM, anti-RXR (NR concentration 30 nM, RXRa partner concentration 10 nM) | fulfilled |
| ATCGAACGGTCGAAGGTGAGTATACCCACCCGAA | PPARg:RXRa 30nM:10nM, anti-RXR (NR concentration 30 nM, RXRa partner concentration 10 nM) | not fulfilled |
| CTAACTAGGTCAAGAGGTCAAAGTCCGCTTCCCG | PPARg:RXRa 30nM:10nM, anti-RXR (NR concentration 30 nM, RXRa partner concentration 10 nM) | fulfilled |
| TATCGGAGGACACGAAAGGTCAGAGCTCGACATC | PPARg:RXRa 30nM:10nM, anti-RXR (NR concentration 30 nM, RXRa partner concentration 10 nM) | fulfilled |

Query: Determine whether measured PBM binding z-score meets or exceeds 0.9 for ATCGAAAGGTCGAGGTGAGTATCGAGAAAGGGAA
Result: fulfilled

Query: Continue with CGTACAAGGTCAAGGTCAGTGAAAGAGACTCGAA
Result: fulfilled

Query: Follow-up item: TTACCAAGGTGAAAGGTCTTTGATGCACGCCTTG
Result: fulfilled

Query: Now consider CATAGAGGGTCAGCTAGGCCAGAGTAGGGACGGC .
Result: not fulfilled

Query: Another sequence to check: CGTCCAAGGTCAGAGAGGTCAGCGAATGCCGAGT
Result: fulfilled

Query: Now the sequence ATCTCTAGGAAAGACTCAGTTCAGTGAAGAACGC
Result: not fulfilled

Query: Field entry: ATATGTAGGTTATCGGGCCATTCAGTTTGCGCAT
Result: fulfilled

Query: Another sequence to look at: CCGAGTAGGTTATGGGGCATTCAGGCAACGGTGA
Result: fulfilled

Query: Thanks! And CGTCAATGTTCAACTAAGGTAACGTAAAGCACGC ?
Result: not fulfilled

Query: Do the same for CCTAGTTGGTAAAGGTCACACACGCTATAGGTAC please
Result: fulfilled

Query: How about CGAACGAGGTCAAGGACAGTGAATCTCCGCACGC ?
Result: fulfilled

Query: Also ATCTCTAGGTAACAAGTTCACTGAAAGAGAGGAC ?
Result: fulfilled

Query: Moving on to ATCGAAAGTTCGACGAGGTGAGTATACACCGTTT
Result: not fulfilled

Query: Another sequence to look at: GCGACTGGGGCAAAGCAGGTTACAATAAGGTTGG
Result: not fulfilled

Query: Same read-out for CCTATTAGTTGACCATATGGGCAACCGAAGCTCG ?
Result: not fulfilled

Query: // query: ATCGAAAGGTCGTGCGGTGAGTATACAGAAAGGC
Result: fulfilled

Query: Please give the result for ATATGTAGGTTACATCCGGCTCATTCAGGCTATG too.
Result: fulfilled

---

Reported PBM binding z-score values are given for each entry in this list.
Test system: PPARg:RXRa 30nM:10nM, anti-RXR (NR concentration 30 nM, RXRa partner concentration 10 nM)
procedure-details: PBM binding z-score (relative to random genomic background probes); higher = stronger binding; sequences stand for … in GC…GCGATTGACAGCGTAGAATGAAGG

Example results:
| sequence | measurement |
| --- | --- |
| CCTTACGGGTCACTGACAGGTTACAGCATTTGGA | 1.49 |
| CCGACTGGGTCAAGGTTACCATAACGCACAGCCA | 3.15 |
| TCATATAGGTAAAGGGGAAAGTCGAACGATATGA | 4.55 |
| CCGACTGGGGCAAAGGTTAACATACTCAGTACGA | 9.81 |
| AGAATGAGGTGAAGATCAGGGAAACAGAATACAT | 0.859 |

Query: Fill in the recorded PBM binding z-score for this sequence, with PPARg:RXRa 30nM:10nM, anti-RXR (NR concentration 30 nM, RXRa partner concentration 10 nM) as test system: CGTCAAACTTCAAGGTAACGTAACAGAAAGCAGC
Result: 0.337

Query: Repeat with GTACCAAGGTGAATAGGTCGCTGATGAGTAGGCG
Result: 0.17

Query: Next: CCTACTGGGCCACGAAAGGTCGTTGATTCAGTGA
Result: 0.0833

---

System: LXRa:RXRa (NR concentration 270 nM, RXRa partner concentration 90 nM)
procedure-details: PBM binding z-score (relative to random genomic background probes); higher = stronger binding; sequences stand for … in GC…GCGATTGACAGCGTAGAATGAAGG
Reported PBM binding z-score is given for each of the following sequences.
Reply with the value as a number alone.

Query: Look up PBM binding z-score with LXRa:RXRa (NR concentration 270 nM, RXRa partner concentration 90 nM) for this sequence: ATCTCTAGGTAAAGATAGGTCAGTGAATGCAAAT
Result: 5.46

Query: What do you get for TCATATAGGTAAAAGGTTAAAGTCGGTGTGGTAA ?
Result: 3.43

Query: What about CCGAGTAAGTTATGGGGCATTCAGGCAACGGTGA ?
Result: -0.322

Query: Next sequence up: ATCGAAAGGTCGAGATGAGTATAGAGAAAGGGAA
Result: 3.2

---

Listed here: items and their measured PBM binding z-score.
Test system: RXRa DBDmut IVT, anti-RXR (DBD mutation: RXRa K156A/R161A, NR concentration 90 nM)
procedure-details: PBM binding z-score (relative to random genomic background probes); higher = stronger binding; sequences stand for … in GC…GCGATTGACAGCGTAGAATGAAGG
Give the figure by itself; no unit, no explanation.

A selection of reference data follows.
| sequence | subject-of-test | measurement-kind | measurement |
| --- | --- | --- | --- |
| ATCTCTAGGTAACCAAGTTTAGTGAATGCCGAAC | RXRa DBDmut IVT, anti-RXR (DBD mutation: RXRa K156A/R161A, NR concentration 90 nM) | PBM binding z-score | 0.384 |
| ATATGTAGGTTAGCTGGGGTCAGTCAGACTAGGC | RXRa DBDmut IVT, anti-RXR (DBD mutation: RXRa K156A/R161A, NR concentration 90 nM) | PBM binding z-score | 0.894 |

Query: Could you share which PBM binding z-score value was measured for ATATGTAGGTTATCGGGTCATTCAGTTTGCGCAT ?
Result: 1.87

Query: One more sequence: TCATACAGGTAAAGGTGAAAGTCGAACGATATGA
Result: 1.17

Query: Likewise for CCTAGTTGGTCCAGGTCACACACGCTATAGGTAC ?
Result: 1.35

Query: Further, for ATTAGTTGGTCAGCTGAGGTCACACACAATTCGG ?
Result: 1.58

---

Test system: RXRa DBDmut IVT, anti-RXR (DBD mutation: RXRa K156A/R161A, NR concentration 90 nM)
procedure-details: PBM binding z-score (relative to random genomic background probes); higher = stronger binding; sequences stand for … in GC…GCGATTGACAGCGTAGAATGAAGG
Response key: Y means PBM binding z-score >= 0.9; N means PBM binding z-score < 0.9.

// below: answered sequences
| sequence | category |
| --- | --- |
| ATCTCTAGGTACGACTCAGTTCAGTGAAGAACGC | Y |
| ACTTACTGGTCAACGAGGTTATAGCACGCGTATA | Y |
| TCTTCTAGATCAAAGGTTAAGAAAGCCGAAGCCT | N |
| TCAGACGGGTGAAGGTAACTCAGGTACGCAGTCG | N |
| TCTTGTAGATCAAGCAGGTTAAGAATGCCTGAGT | N |
| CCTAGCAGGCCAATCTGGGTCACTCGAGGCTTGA | N |
| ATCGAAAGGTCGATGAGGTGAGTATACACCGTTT | N |
| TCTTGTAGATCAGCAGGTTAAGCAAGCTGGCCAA | N |

Query: I'd appreciate it if you could say whether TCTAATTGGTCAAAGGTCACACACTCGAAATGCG has PBM binding z-score at least equal to 0.9.
Result: Y

Query: Try this sequence too: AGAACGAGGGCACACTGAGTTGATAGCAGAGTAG
Result: Y

Query: Proceed to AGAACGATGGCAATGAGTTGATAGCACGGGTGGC
Result: N

Query: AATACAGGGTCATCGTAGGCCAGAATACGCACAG ?
Result: Y

Query: Would you mind doing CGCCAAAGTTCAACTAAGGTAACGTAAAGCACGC as well?
Result: Y

Query: Same read-out for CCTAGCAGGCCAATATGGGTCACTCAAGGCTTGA ?
Result: N

Query: Repeat for the following sequence: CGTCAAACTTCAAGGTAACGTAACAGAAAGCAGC
Result: N

Query: Also check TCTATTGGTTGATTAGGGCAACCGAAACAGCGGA
Result: N
